Where do these numbers come from? They come from the RNAGym collection of RNA variant scans (doi:10.1073/pnas.2313332121).

B1: TPR 5TU (parent)
chain: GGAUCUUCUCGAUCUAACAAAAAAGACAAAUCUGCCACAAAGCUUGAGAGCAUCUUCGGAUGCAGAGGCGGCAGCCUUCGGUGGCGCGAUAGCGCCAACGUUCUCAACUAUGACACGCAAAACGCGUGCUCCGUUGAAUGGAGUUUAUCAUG

- Variants of: B1
- ASSAY_SUMMARY: polymerase ribozyme fitness, log enrichment relative to wild type (log ratio); higher = more active; in vitro selection for triplet polymerase activity
Variants at the floor of the assay were thinned out.
VALUE_KIND: polymerase ribozyme fitness (log ratio)

{"columns": ["CHANGES", "VALUE_KIND", "RESULT_MODIFIER", "TEST_VALUE"],
 "data": [
  ["G83C G136A", "polymerase ribozyme fitness (log ratio)", "=", -0.101],
  ["C35U G92A A122G", "polymerase ribozyme fitness (log ratio)", "=", -3.92],
  ["A23G C54U C93U G128C", "polymerase ribozyme fitness (log ratio)", "≤", -4.2],
  ["C5G U13A A23U A52C C87A C105U A107G", "polymerase ribozyme fitness (log ratio)", "≤", -4.2],
  ["G48C G58A A91G", "polymerase ribozyme fitness (log ratio)", "=", -3.21],
  ["A21U C99U C116U C125U", "polymerase ribozyme fitness (log ratio)", "=", -1.64],
  ["C96U A107C", "polymerase ribozyme fitness (log ratio)", "=", -3.14],
  ["A3G U4G U15A C27U C38A C57G G92A A119U", "polymerase ribozyme fitness (log ratio)", "≤", -4.2],
  ["G50C C118G G140A", "polymerase ribozyme fitness (log ratio)", "≤", -4.2],
  ["G86A A107U", "polymerase ribozyme fitness (log ratio)", "=", -3.39],
  ["C51U U56A C87A C95U C118A U139C", "polymerase ribozyme fitness (log ratio)", "≤", -4.2],
  ["G83U G92A C125G A138G U151A", "polymerase ribozyme fitness (log ratio)", "≤", -4.2],
  ["C51G A91G", "polymerase ribozyme fitness (log ratio)", "≤", -4.2],
  ["U9G A40C", "polymerase ribozyme fitness (log ratio)", "=", -3.48],
  ["U7A U9A A98G A121G", "polymerase ribozyme fitness (log ratio)", "≤", -4.2],
  ["C14A A29U C96A U101G G133C U144C", "polymerase ribozyme fitness (log ratio)", "≤", -4.2]
]}
